# Test system: Huh-7 cells
# ASSAY SUMMARY: MTS cell toxicity assay, Huh-7 cells
# Type: cell-based
# MEASUREMENT CONDITIONS: Huh-7 cells, 24 h, light exposure
ENDPOINT LABEL: CC50

Some compounds with known CC50 results, for comparison:
O=C1OC2(c3cc(I)c(O)c(I)c3Oc3c2cc(I)c(O)c3I)c2c(Cl)c(Cl)c(Cl)c(Cl)c21 ... > 80 µM
C=CC1=C(C)c2cc3[n-]c(cc4[n-]c(cc5nc(cc1n2)C(C)=C5C=C)c(C)c4CCC(=O)O)c(CCC(=O)O)c3C.[Zn+2] ... 16.6 µM

Continue with the next compound.
Prompt: Lab note: Huh-7 cells assay, enter CC50 for CCC1=C(C)c2cc3[nH]c(cc4nc(cc5c(CCC(=O)O)c(C)c(cc1n2)n5C)C(CCC(=O)O)=C4C)c(C)c3CC here
Response: > 80 µM
